molecular target: Cannabinoid receptor 2 (Homo sapiens, UniProt P34972)
Sequence (P34972 whole entry): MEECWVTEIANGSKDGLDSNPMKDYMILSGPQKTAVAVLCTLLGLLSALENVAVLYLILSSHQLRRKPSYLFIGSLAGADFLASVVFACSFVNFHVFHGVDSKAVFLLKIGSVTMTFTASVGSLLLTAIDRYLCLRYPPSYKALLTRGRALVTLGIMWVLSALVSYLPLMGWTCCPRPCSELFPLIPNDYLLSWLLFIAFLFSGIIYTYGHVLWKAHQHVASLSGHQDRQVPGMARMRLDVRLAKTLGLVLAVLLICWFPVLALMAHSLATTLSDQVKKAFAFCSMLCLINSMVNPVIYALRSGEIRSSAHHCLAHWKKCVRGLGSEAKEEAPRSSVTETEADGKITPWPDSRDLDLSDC

Compound: CNC(=O)CCCN(C)C(=O)c1ccc2c(c1)c1c(n2C)CC[C@@H](C2CCOCC2)C1
Ki [µM]: 0.0155
//
Compound: CN(CC(=O)NC1CC1)C(=O)c1ccc2c(c1)c1c(n2C)CCC(C2CCOCC2)C1 (racemic)
Ki [µM]: 0.0263
//
Compound: CN(CC(=O)NC1CC1)C(=O)c1ccc2c(c1)c1c(n2C)CC[C@@H](C2CCOCC2)C1
Ki [µM]: 0.0215
//
Compound: CN(CC(=O)NC1CC1)C(=O)c1ccc2c(c1)c1c(n2C)CC[C@H](C2CCOCC2)C1
Ki [µM]: 0.0491

Data origin, for the record: ChEMBL document CHEMBL2029249
